Please provide measured human MASP2 IC50 for the entries that follow.
# Tested System: recombinant human MASP2 active protease (amino acids 297-686, C-terminal His Tag) (human, UniProt O00187 297-686)
# Sequence (O00187 other isoform, or with tags, fused parts or gaps limits assumed): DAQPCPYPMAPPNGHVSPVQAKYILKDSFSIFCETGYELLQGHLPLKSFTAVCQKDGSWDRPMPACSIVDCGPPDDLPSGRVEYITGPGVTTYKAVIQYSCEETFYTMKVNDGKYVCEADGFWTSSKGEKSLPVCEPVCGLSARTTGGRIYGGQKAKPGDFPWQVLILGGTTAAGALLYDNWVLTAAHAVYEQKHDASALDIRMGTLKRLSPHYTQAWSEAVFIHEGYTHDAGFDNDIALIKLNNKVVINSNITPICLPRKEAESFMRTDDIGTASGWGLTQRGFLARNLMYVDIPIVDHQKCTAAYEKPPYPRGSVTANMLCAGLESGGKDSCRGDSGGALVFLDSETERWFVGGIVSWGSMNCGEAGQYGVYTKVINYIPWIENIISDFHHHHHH
# Test Summary: cell-based or functional assay
Bridge positions count the residues as written; N and C are the ends. Square brackets hold non-standard residues; d marks the D form. Ends that are not written are not given here. * marks the point of attachment. Pro(trans-4-F) = O=C(O)[C@@H]1C[C@@H](F)CN1; Oic = O=C(O)[C@@H]1C[C@@H]2CCCC[C@@H]2N1; tBuAla = CC(C)(C)C[C@H](N)C(=O)O; Pen = CC(C)(S)[C@H](N)C(=O)O; Isovaleryl = CC(C)CC(=O)*; NMeC = CN[C@@H](CS)C(=O)O; PEG2 = NCCOCCOCCC(=O)O; Sar = CNCC(=O)O
Numbers only, in nM.

Inquiry: Fill in reported human MASP2 IC50 for this entry: Isovaleryl-ICSRS[tBuAla]PPI[NMeC]I-NH2 (disulfide 2-10; SMILES CC[C@H](C)[C@H](NC(=O)[C@@H]1CSSC[C@H](NC(=O)[C@@H](NC(=O)CC(C)C)[C@@H](C)CC)C(=O)N[C@@H](CO)C(=O)N[C@@H](CCCNC(=N)N)C(=O)N[C@@H](CO)C(=O)N[C@@H](CC(C)(C)C)C(=O)N2CCC[C@H]2C(=O)N2CCC[C@H]2C(=O)N[C@@H]([C@@H](C)CC)C(=O)N1C)C(N)=O) [Example 358: (Isovaleric)-IC+SRS-((tBu)A)-PPI-((N-Me)C)+I-NH2]
Reply text: 19

Would you mind listing human MASP2 IC50 for each of the following binders?
1. [Sar]ICSRSLP[Pro(trans-4-F)]ICIPD-OH (disulfide 3-11; N-terminus assumed; SMILES CC[C@H](C)[C@H](NC(=O)CNC)C(=O)N[C@H]1CSSC[C@@H](C(=O)N[C@H](C(=O)N2CCC[C@H]2C(=O)N[C@@H](CC(=O)O)C(=O)O)[C@@H](C)CC)NC(=O)[C@H]([C@@H](C)CC)NC(=O)[C@@H]2C[C@@H](F)CN2C(=O)[C@@H]2CCCN2C(=O)[C@H](CC(C)C)NC(=O)[C@H](CO)NC(=O)[C@H](CCCNC(=N)N)NC(=O)[C@H](CO)NC1=O) [Example 390: ((N-Me)G)-IC+SRSLP-((trans-4-Fluoro)P)-IC+IPD-OH]
2. AICSRSLP[Oic]I[Pen]IPN-OH (disulfide 3-11; N-terminus assumed; SMILES CC[C@H](C)[C@H](NC(=O)[C@H](C)N)C(=O)N[C@H]1CSSC(C)(C)[C@@H](C(=O)N[C@H](C(=O)N2CCC[C@H]2C(=O)N[C@@H](CC(N)=O)C(=O)O)[C@@H](C)CC)NC(=O)[C@H]([C@@H](C)CC)NC(=O)[C@@H]2C[C@@H]3CCCC[C@@H]3N2C(=O)[C@@H]2CCCN2C(=O)[C@H](CC(C)C)NC(=O)[C@H](CO)NC(=O)[C@H](CCCNC(=N)N)NC(=O)[C@H](CO)NC1=O) [Example 418: AIC+SRSLP-(Oic)-I-(Pen)+IPN-OH]
3. [PEG2]AICSRS[tBuAla]PPI[Pen]IPD-NH2 (disulfide 4-12; N-terminus assumed; SMILES CC[C@H](C)[C@H](NC(=O)[C@H](C)NC(=O)CCOCCOCCN)C(=O)N[C@H]1CSSC(C)(C)[C@@H](C(=O)N[C@H](C(=O)N2CCC[C@H]2C(=O)N[C@@H](CC(=O)O)C(N)=O)[C@@H](C)CC)NC(=O)[C@H]([C@@H](C)CC)NC(=O)[C@@H]2CCCN2C(=O)[C@@H]2CCCN2C(=O)[C@H](CC(C)(C)C)NC(=O)[C@H](CO)NC(=O)[C@H](CCCNC(=N)N)NC(=O)[C@H](CO)NC1=O) [Example 320: (PEG1(10 atoms))-AIC+SRS-((tBu)A)-PPI-(Pen)+IPD-NH2]

Reply text:
1300
130
190
